# Target: RBP4-TTR interaction (Homo sapiens (Human))
# Assay Remarks: TR-FRET (HTRF) assay for retinol-induced RBP4-TTR interaction
# Conditions Used: in the presence of 1 μM retinol; read-out: HTRF assay for antagonists of RBP4-TTR interaction: IC50
Structures can show the parent of a compound that is named as a salt.
The following molecules are shown together with reported pIC50 values.
Just the number, please; pIC50 means minus log10 of the concentration in mol/L.

Please review the entries below; each comes with its answer.
CC(C)C(=O)N1Cc2[nH]nc(C(=O)N3CCC(c4ccc(F)c(F)c4C(F)(F)F)CC3)c2C1 ... 7.65
O=C(c1n[nH]c2c1CCN(CC1CC1)C2)N1CCC(c2cccc(F)c2Cl)CC1 ... 7.44
O=C(c1ccccc1)N1Cc2[nH]nc(C(=O)N3CCC(c4ccc(F)c(F)c4C(F)(F)F)CC3)c2C1 ... 7.56
O=C(c1n[nH]c2c1CCN(C1COC1)C2)N1CCC(c2ccc(F)c(F)c2C(F)(F)F)CC1 ... 7.42
COC(=O)N1CCc2c(C(=O)N3CCC(c4cc(F)cc(F)c4C(F)(F)F)CC3)n[nH]c2C1 ... 7.83

Short answer for O=C(c1n[nH]c2c1CCNC2)N1CCC(c2ccc(F)c(F)c2C(F)(F)F)CC1 [Compound 34, Trifluoroacetic Acid Salt] : pIC50 was 7.27

pIC50 reading for `CC(=O)N1CCc2c(C(=O)N3CCC(c4c(F)cccc4C(F)(F)F)CC3)n[nH]c2C1` : 6.61

---

Measured IC50, listed per entry.
# Target: RBP4-TTR interaction (Homo sapiens (Human), UniProt P02753)
# Assay Remarks: TR-FRET (HTRF) assay for retinol-induced RBP4-TTR interaction
# Conditions Used: in the presence of 1 μM retinol; read-out: HTRF assay for antagonists of RBP4-TTR interaction: IC50
Structures can show the parent of a compound that is named as a salt.
Number first, unit second: that is the form wanted.

Observed IC50, RBP4-TTR interaction (Homo sapiens (Human), UniProt P02753), O=C(c1n[nH]c2c1CCNC2)N1CCC(c2cccc(F)c2Cl)CC1 [Compound 40, Hydrochloride] : 0.0849 µM

Summary: CS(=O)(=O)N1CCc2[nH]nc(C(=O)N3CCC(c4cccc(F)c4Cl)CC3)c2C1 [Compound 151] , RBP4-TTR interaction (Homo sapiens (Human), UniProt P02753), IC50 = 0.0677 µM

---

# Target: UniProt:P02753
Reported Property: IC50 (nM)
Give your result in nM as a bare value.

# annotated cases, reported IC50 shown
CNC(=O)N1CCc2[nH]nc(C(=O)N3CCC(c4ccc(F)c(F)c4C(F)(F)F)CC3)c2C1 [Compound 92] ... 10.2
O=C(c1n[nH]c2c1CN(CC(F)(F)F)C2)N1CCC(c2ccc(F)c(F)c2C(F)(F)F)CC1 [Compound 107] ... 23.4
CCN1CCc2c(C(=O)N3CCC(c4ccc(F)c(F)c4C(F)(F)F)CC3)n[nH]c2C1 [Compound 111] ... 6.89

# evaluate next
Case CS(=O)(=O)N1CCc2[nH]nc(C(=O)N3CCC(c4cc(C(F)(F)F)cc(C(F)(F)F)c4)CC3)c2C1 [Compound 154] , UniProt:P02753, IC50 recorded as 150
